Reported Epitope values are given for each entry in this list.
- Tested on: hT40, dGA, dGAE and truncated tau fragments
- assay_notes: Binding ELISA / epitope mapping of anti-tau scAbs with truncated tau proteins and 13mer peptides
- Set-up: species or system human
- details: Table 26 summary; top scAbs; residues of hT40

{"molecule": "CB7: human-specific N-terminal anti-tau clone, Table 10; SEQ ID NO: 364 (protein, CB7 amino acid sequence) scFv: QVQLQESGPSLVKPSQTLSLTCTVSGFSLTNYRVGWVRQAPGKALEWVSNIRSGGTTWYNPALKSRLSITADTSKSQVSLSLSSVTTEDTAVYYCARDSSGDLYAYDYWGPGLLVTVSSEGKSSGASGESKVDDQAVLTQPSSVSRSLGQSVSMTCSGSSSNVGYGNYMAWFQQVPGSAPKLLIYGATSRASGVPDRFSGSRSGNTATLTISSLQAEDEADYYCASYDSTSGGVFGSGTRLTVLG", "Epitope": "13-25"}
{"molecule": "E2E8: dGAE (391E) specific clone, Table 9; SEQ ID NO: 248 (protein, E2E8 amino acid sequence) scFv: QVQLQESGPSLVKPSQTLSLTCTVSGFSLTDRGVAWVRQAPGKALEWVGTMRSGGTIDYNPALKSRLSITRDTSKSQVFLSLSSVTTEDMAMYYCARGYLSGDRYAWGRGLLVTVSSEGKSSGASGESKVDDQAVLTQPSSVSKSLGQSVSIACSGSRSDIGYGNYVSWFQQIPGSAPKLLIYDTNTRASGVPDRFSGARSGNTATLTINSLQAEDEADYYCANIDSSRSHLFGSGTRLTVLG", "Epitope": 391}

The values you see were collected from patent US20250355001A1.
